- EXPERIMENTAL_SYSTEM: Human immunodeficiency virus type 1 protease (Human immunodeficiency virus 1)
- ASSAY_INFO: Inhibition of dimerization of HIV1 protease MDR-HM mutant
METRIC_NAME: pKi
Formally, pKi is defined as -log10 of the concentration c, with c in mol/L.

# compound COC(=O)[C@@H](NC(=O)[C@@H](CC(C)C)NC(=O)[C@@H](NC(=O)CCCOc1ccc2ccc(OCCCC(=O)NC(C(=O)Nc3cccn(CC(N)=O)c3=O)C(C)C)cc2c1)C(C)C)C(C)C (stereo partly specified) ; its pKi = 5.32

----------
- EXPERIMENTAL_SYSTEM: Human immunodeficiency virus type 1 protease (Human immunodeficiency virus 1, UniProt Q72874, V82A)
- ASSAY_INFO: Inhibition of dimerization of HIV1 protease V82A mutant
METRIC_NAME: Ki
Be sure to follow the number with its unit.

# molecule COC(=O)[C@@H](NC(=O)[C@@H](CC(C)C)NC(=O)[C@@H](NC(=O)CCCOc1ccc2ccc(OCCCC(=O)NC(C(=O)Nc3cccn(CC(N)=O)c3=O)C(C)C)cc2c1)C(C)C)C(C)C (stereo partly specified) ; its Ki = 240 nM

----------
- ASSAY_INFO: Stability in presence of 20% fetal calf serum
- Format: ADME
- SETUP_CONDITIONS: cattle
METRIC_NAME: half-life (h)
Give just the numeric value; h need not be written.

QUERY_SMILES	UNIT_TEXT	TEST_RESULT
COC(=O)[C@@H](NC(=O)[C@H](CC(C)C)NC(=O)[C@@H](NC(=O)CCCOc1ccc2ccc(OCCCC(=O)N[C@H](C(=O)Nc3cccn(CC(N)=O)c3=O)C(C)C)cc2c1)C(C)C)C(C)C	h	41

# ---- query molecule ----
# molecule `COC(=O)[C@@H](NC(=O)[C@H](CC(C)C)NC(=O)[C@@H](NC(=O)CCCOc1ccc2ccc(OCCCC(=O)N[C@H](C(=O)N[C@@H](CC(C)C)C(=O)N[C@H](C(=O)OC)C(C)C)C(C)C)cc2c1)C(C)C)C(C)C` ; its half-life = 28

----------
- EXPERIMENTAL_SYSTEM: Human immunodeficiency virus type 1 protease (Human immunodeficiency virus 1, UniProt Q72874, G48V/L90M)
- ASSAY_INFO: Inhibition of dimerization of HIV1 protease G48V/L90M mutant
METRIC_NAME: Ki (nM)
Give just the numeric value; nM need not be written.

# molecule COC(=O)[C@@H](NC(=O)[C@@H](CC(C)C)NC(=O)[C@@H](NC(=O)CCCOc1ccc2ccc(OCCCC(=O)NC(C(=O)Nc3cccn(CC(N)=O)c3=O)C(C)C)cc2c1)C(C)C)C(C)C (stereo partly specified) ; its Ki = 500

----------
- EXPERIMENTAL_SYSTEM: Human immunodeficiency virus type 1 protease (Human immunodeficiency virus 1, UniProt Q72874)
- ASSAY_INFO: Inhibition of wild type HIV1 protease dimerization
METRIC_NAME: pKi
Formally, pKi is defined as -log10 of the concentration c, with c in mol/L.

MOLECULE	pKi
COC(=O)[C@@H](NC(=O)[C@@H](CC(C)C)NC(=O)[C@@H](NC(=O)CCCOc1ccc2ccc(OCCCC(=O)NC(C(=O)Nc3cccn(CC(N)=O)c3=O)C(C)C)cc2c1)C(C)C)C(C)C (some centres not stated)	6.40

# ---- query molecule ----
# molecule `COC(=O)[C@@H](NC(=O)[C@H](CC(C)C)NC(=O)[C@@H](NC(=O)CCCOc1ccc2ccc(OCCCC(=O)N[C@H](C(=O)NNC(=O)c3cc(NC(C)=O)ccc3OC)C(C)C)cc2c1)C(C)C)C(C)C` ; its pKi = 6.70

----------
- EXPERIMENTAL_SYSTEM: Human immunodeficiency virus type 1 protease (Human immunodeficiency virus 1)
- ASSAY_INFO: Inhibition of dimerization of HIV1 protease ANAM-11 mutant
METRIC_NAME: Ki

# compound COC(=O)[C@@H](NC(=O)[C@@H](CC(C)C)NC(=O)[C@@H](NC(=O)CCCOc1ccc2ccc(OCCCC(=O)NC(C(=O)Nc3cccn(CC(N)=O)c3=O)C(C)C)cc2c1)C(C)C)C(C)C (stereo partly specified) ; its Ki = 200 nM
